testTarget: Human CB1R (Cannabanoid receptor 1) (Homo sapiens (Human))
testProtocol: CB-1 in vitro cAMP (HTRF) assay
statedConditions: HEK-293 cells stably transfected with human CB1R, 250 nM Forskolin, mean where tested more than once
Excerpt: CB1 and CB2 receptors are Gi-coupled GPCR. Activation of CB1 and CB2 receptors results in a decrease in cAMP production. An inverse agonist of the CB1 or CB2 receptor results in the opposite effect, an increase of cAMP production. The principle of this assay is based on HTRF® technology (Homogeneous Time-Resolved Fluorescence). […] The tracer binding is quantified by a Mab anti-cAMP labeled with Eu3+TBP-NHS Cryptate (supplied as part of the assay kit). […]
pEC50: −log10 of the molar value.
recordedEndpoint: pEC50

Here are 5 compounds together with their reported answers.
compound: OC(c1ccc(Cl)cc1)(c1ccc(Cl)cc1)c1ccc2nncc(NCc3ccc(C(F)(F)F)cc3)c2c1
pEC50: 6.66
//
compound: O=C(O)c1ccc(CN2CCC(Nc3cnnc4ccc(C(c5ccc(Cl)cc5)c5ccc(Cl)cc5)cc34)CC2)s1
pEC50: 6.40
//
compound: O=S(=O)(N1CCC(Nc2cnnc3ccc(C(c4ccc(Cl)cc4)c4nccs4)cc23)CC1)C(F)(F)F (stereo not shown)
pEC50: 7.55
//
compound: O=C(O)c1ccc(S(=O)(=O)N2CCC(Nc3cnnc4ccc(C(c5ccc(Cl)cc5)c5ccc(Cl)cc5)cc34)CC2)o1
pEC50: 5.89
//
compound: O=C(O)c1ccc(S(=O)(=O)N2CCC(Nc3cnnc4ccc(C(c5ccc(Cl)cc5)c5ccc(Cl)cc5)cc34)CC2)s1
pEC50: 6.58

(P) O=S(=O)(c1ccccc1)N1CCC(Nc2cnnc3ccc(C(c4ccc(Cl)cc4)c4ccc(Cl)cc4)cc23)CC1
(Q) Clc1ccc(C(c2ccc(Cl)cc2)c2ccc3nncc(N4CCN(Cc5ccccc5)CC4)c3c2)cc1
Lower pEC50: P or Q ? Choose, then provide that item's label. Q

====

testTarget: Human CB1R (Cannabanoid receptor 1) (Homo sapiens (Human), UniProt P21554)
Sequence (P21554 whole entry): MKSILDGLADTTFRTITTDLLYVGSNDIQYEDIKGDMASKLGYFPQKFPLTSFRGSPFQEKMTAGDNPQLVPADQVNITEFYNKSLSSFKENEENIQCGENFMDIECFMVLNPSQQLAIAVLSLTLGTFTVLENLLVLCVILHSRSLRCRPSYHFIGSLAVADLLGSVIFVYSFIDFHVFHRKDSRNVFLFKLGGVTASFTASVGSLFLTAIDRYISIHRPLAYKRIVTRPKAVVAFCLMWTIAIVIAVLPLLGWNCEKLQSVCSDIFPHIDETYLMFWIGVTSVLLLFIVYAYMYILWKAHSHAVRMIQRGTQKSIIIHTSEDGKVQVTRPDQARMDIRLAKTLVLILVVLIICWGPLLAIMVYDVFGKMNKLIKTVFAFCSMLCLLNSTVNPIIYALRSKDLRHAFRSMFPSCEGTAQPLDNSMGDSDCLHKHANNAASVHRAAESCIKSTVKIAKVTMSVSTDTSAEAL
testProtocol: CB-1 in vitro cAMP (HTRF) assay
statedConditions: HEK-293 cells stably transfected with human CB1R, 250 nM Forskolin, mean where tested more than once
recordedEndpoint: EC50 (nM)

Here are 2 molecules together with their reported answers.
cpdSmiles: O=C(O)c1cccc(S(=O)(=O)N2CCC(Nc3cnnc4ccc(C(c5ccc(Cl)cc5)c5ccc(Cl)cc5)cc34)CC2)c1
EC50 (nM): 181
//
cpdSmiles: O=S(=O)(N1CCC(Nc2cnnc3ccc(C(c4ccc(F)cc4)c4ccc(F)cc4)cc23)CC1)C(F)(F)F
EC50 (nM): 79

(1) O=C(O)c1ccc(CCNc2cnnc3ccc(C(c4ccc(Cl)cc4)c4ccc(Cl)cc4)cc23)cc1
(2) FC(F)(F)c1cccc(CNc2cnnc3ccc(C(c4ccc(Cl)cc4)c4ccc(Cl)cc4)cc23)c1
Lower EC50: 1 or 2 ? Choose, then provide that item's label. 2

====

testTarget: Human CB1R (Cannabanoid receptor 1) (Homo sapiens (Human), UniProt P21554)
testProtocol: CB-1 in vitro cAMP (HTRF) assay
statedConditions: HEK-293 cells stably transfected with human CB1R, 250 nM Forskolin, mean where tested more than once
recordedEndpoint: EC50 (nM)

Here are 2 compounds together with their reported answers.
compound: CC(C)(C)OC(=O)N1CCC(Nc2cnnc3ccc(C(O)(c4ccc(Cl)cc4)c4ccc(Cl)cc4)cc23)CC1
EC50 (nM): 200

compound: O=C(O)c1ccccc1S(=O)(=O)N1CCC(Nc2cnnc3ccc(C(c4ccc(Cl)cc4)c4ccc(Cl)cc4)cc23)CC1
EC50 (nM): 5940

(P) O=S(=O)(N1CCC(Nc2cnnc3ccc(C(c4ccc(Cl)cc4)c4ccc(Cl)cc4)cc23)C1)C(F)(F)F (stereo not shown)
(Q) Clc1ccc(C(c2ccc(Cl)cc2)c2ccc3nncc(NC4CCN(CCc5ccccc5)CC4)c3c2)cc1
Lower EC50: P or Q ? Choose, then provide that item's label. P
